test: Bioavailability in dog; assay type: ADME, organism-based, Canis lupus familiaris; settings: in vivo
Mark 1.0 for reported bioavailability of 70% or greater; mark 0.0 for anything smaller.

In: Decide: bioavailability of Cc1cc(OCC2(CONC(=N)N)CC2)cc(C(=O)N(Cc2ccoc2)CC2CC2)c1 >= 70%?
Out: 1.0

In: Decide: bioavailability of CCCN(Cc1ccoc1)C(=O)c1cc(C)cc(OCC2(CON=C(N)N)CC2)c1 >= 70%?
Out: 1.0

In: Decide: bioavailability of CCCN(Cc1ccoc1)C(=O)c1cc(C)cc(OCCCONC(=N)N)c1 >= 70%?
Out: 0.0

In: Decide: bioavailability of C=CCN(C(=O)c1cc(C)cc(OCCCONC(=N)N)c1)C1CCCC1 >= 70%?
Out: 1.0

====

target: UniProtKB P00734
Kindly supply the reported Ki values for the records listed here.
Report the figure in nM without appending any unit label.

In: Look up Ki of C=CCN(Cc1cccs1)C(=O)c1cc(Cl)cc(OCCCONC(=N)N)c1 and report it.
Out: 147

In: Look up Ki of COCCN(CC1CC1)C(=O)c1cc(Cl)cc(OCCCONC(=N)N)c1 and report it.
Out: 156

In: Look up Ki of N=C(N)NOCCCOc1cc(Cl)cc(C(=O)N(CCN2CCOCC2)CC2CC2)c1 and report it.
Out: 159

In: Look up Ki of Cc1cc(OCCCONC(=N)N)cc(C(=O)N(Cc2ccncc2)CC2CC2)c1 and report it.
Out: 24

In: Look up Ki of CCCN(Cc1ccc(F)cc1)C(=O)c1cc(C)cc(OCCCON=C(N)N)c1 and report it.
Out: 21

In: Look up Ki of CCCN(CC1CCC1)C(=O)c1cc(Cl)cc(OCCCON=C(N)N)c1 and report it.
Out: 16

In: Look up Ki of Cc1cc(OCCCONC(=N)N)cc(C(=O)N(CCCCCC(N)=O)C2CCCCC2)c1 and report it.
Out: 8

====

tested on: Caco-2; assay: Apparent permeability coefficient (Papp) from the apical to basolateral side in the human Caco-2 monolayer was determined; assay type: functional
Kindly supply the reported Activity values for the records listed here.
Report the figure in cm/s without appending any unit label.

In: Please report Activity with Caco-2 for item CCCN(Cc1ccoc1)C(=O)c1cc(C)cc(OCCCON=C(N)N)c1 .
Out: 4.05e-06

In: Please report Activity with Caco-2 for item Cc1cc(OCCCON=C(N)N)cc(C(=O)N(Cc2ccoc2)CC2CC2)c1 .
Out: 3e-06

In: Please report Activity with Caco-2 for item Cc1cc(OCC2(CON=C(N)N)CC2)cc(C(=O)N(Cc2ccoc2)CC2CC2)c1 .
Out: 2.17e-06

In: Please report Activity with Caco-2 for item CCCN(Cc1ccoc1)C(=O)c1cc(C)cc(OCC2(CON=C(N)N)CC2)c1 .
Out: 4.11e-06

In: Please report Activity with Caco-2 for item C=CCN(C(=O)c1cc(C)cc(OCCCON=C(N)N)c1)C1CCCC1 .
Out: 4.86e-06

====

assay: Vss on i.v. administration of 2 mg/kg was measured in dog; format: ADME, organism-based, Canis lupus familiaris; parameters: dose 2 mg/kg, route intravenous; settings: in vivo, iv, read-out: Vss
Kindly supply the reported Vd values for the records listed here.
Report the figure in L/kg without appending any unit label.

In: Look up Vd of Cc1cc(OCCCONC(=N)N)cc(C(=O)N(Cc2ccoc2)CC2CC2)c1 and report it.
Out: 1.6

In: Look up Vd of CCCN(Cc1ccoc1)C(=O)c1cc(C)cc(OCC2(CON=C(N)N)CC2)c1 and report it.
Out: 1.7

In: Look up Vd of Cc1cc(OCC2(CONC(=N)N)CC2)cc(C(=O)N(Cc2ccoc2)CC2CC2)c1 and report it.
Out: 2.5

In: Look up Vd of C=CCN(C(=O)c1cc(C)cc(OCCCONC(=N)N)c1)C1CCCC1 and report it.
Out: 2.8

In: Look up Vd of CCCN(Cc1ccoc1)C(=O)c1cc(C)cc(OCCCONC(=N)N)c1 and report it.
Out: 2.4

Values were extracted from ChEMBL document CHEMBL1146801.
